B1: PCDHGA10 (parent)
chain: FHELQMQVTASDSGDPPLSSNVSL

- Variants of: B1
- Measurement Protocol: protein stability index of a GFP-peptide fusion (GPS, HEK-293T) (PSI 1-6); higher = more stable;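 further: lentivirally expressed fusions sorted by FACS into six bins by GFP to DsRed ratio, PSI derived from sequencing read proportions per bin multiplied by bin number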
- Stated Conditions: c terminus: a fixed tail appended
Tick YES if protein stability index is 2 or greater. Tick NO if protein stability index is less than 2.

Past entries and their recorded results:
variant_label=H2G assigned_label=YES
variant_label=S20R assigned_label=NO
variant_label=S13L assigned_label=YES
variant_label=L4F assigned_label=NO

[ask] Kindly determine if protein stability index recorded for "Q5S" is above or exactly 2.
[reply] YES

[ask] Kindly determine if protein stability index recorded for "F1M" is above or exactly 2.
[reply] YES

[ask] Kindly determine if protein stability index recorded for "A10R" is above or exactly 2.
[reply] NO

[ask] Kindly determine if protein stability index recorded for "S20N" is above or exactly 2.
[reply] YES

[ask] Kindly determine if protein stability index recorded for "F1D" is above or exactly 2.
[reply] YES

[ask] Kindly determine if protein stability index recorded for "M6C" is above or exactly 2.
[reply] YES

[ask] Kindly determine if protein stability index recorded for "G14L" is above or exactly 2.
[reply] YES

[ask] Kindly determine if protein stability index recorded for "H2Q" is above or exactly 2.
[reply] YES

[ask] Kindly determine if protein stability index recorded for "F1I" is above or exactly 2.
[reply] YES

[ask] Kindly determine if protein stability index recorded for "L24H" is above or exactly 2.
[reply] YES
